This section presents compounds with their documented Z-AUC values.
- measurement_protocol: qHTS drug screen for cell cycle checkpoint inhibitors in PARPi-resistant BRCA-mutant ovarian cancer cell lines. (AID 1963452)
- stated_conditions: PEO1/OlaR viability, CellTiter-Glo luminescence, 96 h; measured here: PEO1 parental Z-AUC; stronger effect = lower value
When you answer, write just the number.

See these solved cases before continuing.
| compound | Z-AUC |
| --- | --- |
| CCOCOC[C@H](C[C@H](C)C(=O)NO)NC(=O)c1ccc(Oc2ccccc2)cc1 | 0.894 |
| COc1cc(C(=O)O)ccc1NC(=O)[C@@H]1N[C@@H](CC(C)(C)C)[C@](C#N)(c2ccc(Cl)cc2F)[C@H]1c1cccc(Cl)c1F | 1.51 |

Okay, now this compound:
For record O=C1CC[C@H](N2Cc3c(OCc4ccc(CN5CCOCC5)cc4)cccc3C2=O)C(=O)N1 the listed Z-AUC is 1.06

###

- measurement_protocol: qHTS assay to identify inhibitors of the type 1 interferon - major histocompatibility complex class I in skeletal muscle: Counter screen cell viability and HiBit confirmation (AID 1347412); further: on the % scale 0 is the no-effect control and ±100 the full control effect; nearly all actives have a fitted effect of over 60% in size
- stated_conditions: iHSKM muscle cells + IFN-b, HiBiT or CellTiter-Glo, 24 h; Viability; at 45.9 µM (top of the series)
Inconclusive results are not listed.
This section presents compounds with their documented activity change, negative = inhibition values.
Express your answer in %, writing the number without its unit.

For record CN(Cc1ccc(/C=C/C(=O)NO)cc1)CC12CC3CC(CC(C3)C1)C2 the listed activity change, negative = inhibition is -18.3

For record CC/C(=C(/c1ccc(O)cc1)c1ccc(OCCNC)cc1)c1ccccc1 the listed activity change, negative = inhibition is -19.4

For record O=C(/C=C/c1ccc(CN(CCO)CCc2c[nH]c3ccccc23)cc1)NO the listed activity change, negative = inhibition is -12.6

For record OC1CCC(Oc2cccc3cnc(Nc4ccc5nc[nH]c5c4)nc23)CC1 (stereo not given) the listed activity change, negative = inhibition is 9.5

For record Cc1cc(-n2c(=O)ccc3cnc4[nH]ccc4c32)ccc1F the listed activity change, negative = inhibition is 5.99

###

- measurement_protocol: A2780 Cisplatin Sensitive Ovarian Cancer Cell Toxicity qHTS against the NCATS CANVASS Library (AID 1347353); further: nearly all actives have a fitted effect of over 60% in size
- stated_conditions: A2780 ovarian cancer viability, ATPLite luminescence, 72 h; series mostly up to 46.1 µM
- Text: Natural products and their derivatives continue to be wellsprings of nascent therapeutic potential. […] To address this issue, the Canvass library of natural products was assembled (https://tripod.nih.gov/canvass), in collaboration with academic and industry researchers, for quantitative high-throughput screening (qHTS) across a diverse set of cell-based and biochemical assays. […]
Results filed as inconclusive are left out. Calls of active or inactive are those of the source. Calls come from the whole dose curve; as a rule, active = well fitted cell-killing curve with a large enough effect; inconclusive = small, poorly fitted or top-dose-only effect; inactive = flat fitted curve, though single readings scatter.
I would appreciate it if you answered using one of these outcomes: active, inactive

Some entries whose results are on file:
| molecule | category_label |
| --- | --- |
| C/C(=C\[C@@H](C)CC/C=C/CC/C=C/C(=O)O)[C@H](O)[C@H](C)C(=O)CCCC1CC(=O)NC(=O)C1 | inactive |
| C/C(=C\[C@@H](C)CC/C=C/CC/C=C/C(=O)O)[C@@H](O)[C@H](C)C(=O)CCCC1CC(=O)NC(=O)C1 | inactive |
| C/C(=C\[C@H](C)C(=O)CCCC1CC(=O)NC(=O)C1)[C@@H]1OC(=O)/C=C/CC/C=C/[C@H](O)[C@@H](O)[C@@H]1C | active |

q: # lookup: test call for CC(=O)c1c(C)cc2c(c1O)C(=O)c1c(O)cc(O)cc1C2=O
a: inactive

q: # lookup: test call for COc1ccc([C@@H]2c3cc4c(cc3C(=O)C(C)C2C)OCO4)cc1OC (some centres not stated)
a: inactive

q: # lookup: test call for CC1(C)CC[C@]2(CO)CC[C@]3(C)C(=CCC4[C@@]5(C)CC[C@H](O)C(C)(C)C5CC[C@]43C)C2C1 (some centres not stated)
a: inactive

q: # lookup: test call for Oc1ccc(C2Oc3cc(O)c4c(c3[C@@H]2c2cc(O)cc(O)c2)[C@H]2C(c3ccc(O)cc3)c3c(O)cc5c(c3[C@H]2C4c2ccc(O)cc2)[C@H](c2cc(O)cc(O)c2)C(c2ccc(O)cc2)O5)cc1 (some centres not stated)
a: active

###

- tested_target: Glutathione peroxidase 1 (Homo sapiens) (UniProt P07203)
- Sequence (P07203 whole entry, looked up): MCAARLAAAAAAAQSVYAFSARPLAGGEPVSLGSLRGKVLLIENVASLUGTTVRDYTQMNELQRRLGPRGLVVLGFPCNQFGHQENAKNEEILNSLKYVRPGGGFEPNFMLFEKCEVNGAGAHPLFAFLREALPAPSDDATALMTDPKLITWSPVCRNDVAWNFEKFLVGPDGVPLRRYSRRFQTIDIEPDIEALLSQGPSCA
- measurement_protocol: Primary qHTS Assay for Inhibitors of Recombinant Selenoprotein Glutathione Peroxidase 1 (GPX1) (AID 1845191); further: nearly all actives have a fitted effect of over 65% in size
- stated_conditions: recombinant GPX1, GR-coupled NADPH fluorescence, 15 min; series mostly up to 48.8 µM
Results filed as inconclusive are left out. Calls of active or inactive are those of the source. The call rests on the fitted dose curve; in most records, active means well fitted inhibition curve with a large enough effect; inconclusive means small, poorly fitted or top-dose-only effect; inactive means flat fitted curve, though single readings scatter.
I would appreciate it if you answered using one of these outcomes: active, inactive

Some entries whose results are on file:
| molecule | category_label |
| --- | --- |
| COc1cc(=C2C=c3ccccc3=N2)[nH]/c1=C/c1[nH]c(C)cc1C | inactive |
| [2H]C([2H])(Nc1nc(-c2ccccc2C([2H])(C([2H])([2H])[2H])C([2H])([2H])[2H])ncc1C)c1ccc(-n2ccnn2)cc1 | inactive |
| COc1ccc(S(=O)(=O)N[C@@H](CNc2nc(C)nc(N3CCC(c4ccc5c(n4)NCCC5)CC3)c2C)C(=O)O)cc1 | inactive |
| CCN(CC)CCNC(=O)c1c(C)[nH]c(/C=C2/C(=O)Nc3ccc(-c4csc(-c5ccccc5)n4)cc32)c1C | inactive |
| CC(=O)Nc1cc(Oc2ccc3c(nc(Nc4ccc(F)cc4F)n3C)c2C)ccn1 | inactive |
| COc1cc(C(N)=O)ccc1NC(=O)[C@@H]1N[C@@H](CC(C)(C)C)[C@@]2(C(=O)Nc3cc(Cl)ccc32)[C@H]1c1cccc(Cl)c1F | inactive |
| O=C(O)CC(C(=O)O)n1c(O)c(C2=c3cc(Br)ccc3=NC2=O)sc1=S (configuration not stated) | active |
| CC(=O)N1CCN(c2ccc(NC(=O)Cc3cnc(-c4ccnc(F)c4)c(C)c3)nc2)CC1 | inactive |
| C=C1C[C@@H]2CC[C@@]34C[C@H]5O[C@H]6[C@@H](O3)[C@H]3O[C@H](CC[C@@H]3O[C@H]6[C@H]5O4)CC(=O)C[C@@H]3[C@@H](OC)[C@@H](C[C@H](O)CN)O[C@H]3C[C@H]3O[C@@H](CC[C@@H]1O2)C[C@@H](C)C3=C | inactive |
| Cc1ccccc1N1CCN(S(=O)(=O)C[C@]23CCC(CC2NC(=O)[C@@H](N)CCS(C)(=O)=O)C3(C)C)CC1 (some centres not stated) | inactive |

q: # lookup: test call for Cc1onc(-c2ccc(F)cc2)c1COc1ccc(C(=O)N2CCS(=O)(=O)CC2)cn1
a: inactive

q: # lookup: test call for CCN(CC)C(=O)Cc1csc(NS(=O)(=O)c2cccc(Cl)c2C)n1
a: inactive

q: # lookup: test call for Cn1c(-c2ccccc2C(F)(F)F)nnc1C12CCC(c3noc(C4CC(F)(F)C4)n3)(CC1)CC2
a: inactive

q: # lookup: test call for NS(=O)(=O)c1ccc(NC(=S)N2CCN(C/C=C/c3ccccc3)CC2)cc1
a: inactive

q: # lookup: test call for CC(C)(C)C(=O)N1N=CC[C@H]1c1ccccc1
a: inactive

###

This section presents compounds with their documented activity change, negative = inhibition values.
- measurement_protocol: AP1 Signaling Pathway (AID 357);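 further: ME-180 reporter cells stimulated with EGF at its EC50 level; on the % scale 0 is the no-effect control and ±100 the full control effect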
- stated_conditions: ME-180 AP-1-bla reporter, EGF-induced, beta-lactamase ratio, 5 h; at 7.69 µM (top of the series) unless noted
Results filed as inconclusive are left out.
Express your answer in %, writing the number without its unit.

| compound_structure | quantitative_readout |
| --- | --- |
| Cc1nc2cnc(N3CCOCC3)nc2n(CCC#N)c1=O | 2.45 |
| COc1ccc(-c2nc3cnc(Nc4cccc(OC)c4)nc3n(C3CC3)c2=O)cc1 | -4.98 |
| Cc1noc(C)c1C(=O)N1CCC2(CCCN(Cc3nccs3)C2)CC1 | -7.07 |
| CS(=O)(=O)N1CCC2(CC1)CN(C(=O)Nc1ccccc1)C2 | -5.74 |
| CN(C)C(=O)c1ccc(-c2cncnc2NCCc2cnc[nH]2)cc1 | -9.74 |
| COC(=O)N1CCC2(CCN(Cc3cc(C(F)(F)F)cc(C(F)(F)F)c3)CC2)CC1 | -23.4 |

Okay, now this compound:
For record Cn1cccc1C(=O)N1CCC2(CC1)CN(C(=O)Nc1ccccc1)C2 the listed activity change, negative = inhibition is -4.26

###

- measurement_protocol: Stat Signaling Pathway (AID 446);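 further: ME-180 cervical cancer cells given 40 pM IL-6 alongside compound; SIE-controlled beta-lactamase reporter measured as 460/530 nm FRET emission ratio; on the % scale 0 is the no-effect control and ±100 the full control effect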
- stated_conditions: ME-180 (cervical carcinoma) SIE beta-lactamase reporter, IL-6 stimulated, 5 h; at 7.69 µM (top of the series) unless noted
Records with an inconclusive call do not appear.
This section presents compounds with their documented activity, negative = inhibition values.
Express your answer in %, writing the number without its unit.

See these solved cases before continuing.
| compound_structure | activity, negative = inhibition, % |
| --- | --- |
| CC(=O)NCCNc1ncnc2ccc(-c3c(C)noc3C)cc12 | -17.9 |
| COc1ccccc1CN1CC[C@@]2(CCCN(S(C)(=O)=O)C2)C1 | 5.92 |

Okay, now this compound:
For record COCCNc1ncnc2ccc(-c3cccc(OC)c3)cc12 the listed activity, negative = inhibition is -27.4
